Origin of values: patent US20240287154A1

- ASSAY SYSTEM: human MC3R (human, UniProt P41968 1-323)
- Sequence (P41968 whole entry): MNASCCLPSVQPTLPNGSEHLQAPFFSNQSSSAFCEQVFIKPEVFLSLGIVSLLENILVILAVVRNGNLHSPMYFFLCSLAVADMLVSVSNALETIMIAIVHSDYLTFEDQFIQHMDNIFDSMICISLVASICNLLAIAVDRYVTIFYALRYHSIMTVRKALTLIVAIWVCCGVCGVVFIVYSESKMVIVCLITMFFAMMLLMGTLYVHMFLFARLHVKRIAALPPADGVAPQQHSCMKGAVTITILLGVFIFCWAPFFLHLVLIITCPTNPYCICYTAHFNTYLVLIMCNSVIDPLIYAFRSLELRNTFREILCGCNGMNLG
- TEST SUMMARY: cell-based or functional assay
Non-standard residues stand in square brackets, D forms with d. Phe(4-I) = N[C@@H](Cc1ccc(I)cc1)C(=O)O; d2Nal = N[C@H](Cc1ccc2ccccc2c1)C(=O)O; Nle = CCCC[C@H](N)C(=O)O; dAbu = CC[C@@H](N)C(=O)O
Recorded measurements of MC3R selectivity (relative to MC4R), one per entry

# BINDER, MC3R selectivity (relative to MC4R)
measured = [
    ("Ac-[Nle][dAbu]H[Phe(4-I)]R[dW]DRFG-OH (SMILES CCCC[C@H](NC(C)=O)C(=O)N[C@H](CC)C(=O)N[C@@H](Cc1c[nH]cn1)C(=O)N[C@@H](Cc1ccc(I)cc1)C(=O)N[C@@H](CCCNC(=N)N)C(=O)N[C@H](Cc1c[nH]c2ccccc12)C(=O)N[C@@H](CC(=O)O)C(=O)N[C@@H](CCCNC(=N)N)C(=O)N[C@@H](Cc1ccccc1)C(=O)NCC(=O)O) [CTX-1191]", 470),
    ("Ac-[Nle][dA]H[Phe(4-I)]R[d2Nal]DRFG-OH (SMILES CCCC[C@H](NC(C)=O)C(=O)N[C@H](C)C(=O)N[C@@H](Cc1c[nH]cn1)C(=O)N[C@@H](Cc1ccc(I)cc1)C(=O)N[C@@H](CCCNC(=N)N)C(=O)N[C@H](Cc1ccc2ccccc2c1)C(=O)N[C@@H](CC(=O)O)C(=O)N[C@@H](CCCNC(=N)N)C(=O)N[C@@H](Cc1ccccc1)C(=O)NCC(=O)O) [CTX-1502]", 184),
    ("Ac-[Nle][dA]HFR[dW]DRF-NH2 (SMILES CCCC[C@H](NC(C)=O)C(=O)N[C@H](C)C(=O)N[C@@H](Cc1c[nH]cn1)C(=O)N[C@@H](Cc1ccccc1)C(=O)N[C@@H](CCCNC(=N)N)C(=O)N[C@H](Cc1c[nH]c2ccccc12)C(=O)N[C@@H](CC(=O)O)C(=O)N[C@@H](CCCNC(=N)N)C(=O)N[C@@H](Cc1ccccc1)C(N)=O) [CTX-1158]", 535),
]
